experiment: viability loss with induced miR-34 in A549 – imaging, A549 dox-inducible miR-34, nuclei and caspase counts, primary screen (AID 1347080); conditions: A549 miR-34 inducible, Hoechst nuclei count, 48 h; measured here: relative caspase fold change +Dox/-Dox
API: label(entry) gives rule met if the entry's fold change is strictly smaller than 0.8; on equality or larger values it gives rule not met.

Below, 5 compounds whose answers are already recorded.
# Compound, Class Assignment
measured = [
    ("CCCN(CCc1cccs1)C1CCc2c(O)cccc2C1 (stereo unspecified)", "rule met"),
    ("COc1cc2c(cc1-c1c(C)noc1C)ncc1[nH]c(=O)n(C(C)c3ccccn3)c12 (stereo unspecified)", "rule not met"),
    ("O=C(O)c1ccc(-c2ccccc2OC(F)(F)F)o1", "rule met"),
    ("Cc1ccc(CN2CCN(c3ncnc4sccc34)CC2=O)cc1", "rule not met"),
    ("O=c1[nH]c(=O)c2[nH]cnc2[nH]1", "rule met"),
]

Then this compound:
Query string: Lab note: fold change threshold 0.8. Does this compound come in strictly under it? CC(=O)NC(CCCN=C(N)N)C(=O)O (stereo unspecified)
Result string: rule met

* * *

assay: drug combination growth inhibition, ovarian cancer – cell-based, oncology-focused library, rucaparib conditional, profiling panel (AID 1508598); details: patient-derived ovarian cancer cells, CellTiter-Glo viability, 144 h; at 0.00488 µM; OCI-P5x cells; without rucaparib; stronger effect = lower value
The reader will find reported viability values listed item by item below.
// note: answer is a bare numeric in %

Look over these answered cases.
# Record Smiles, viability / %
data = [
    ("C=CS(=O)(=O)NC1CCN(C(=O)CNc2cc(I)c(Cl)cc2OC)CC1", 102),
    ("CC(C)(C(=O)NCC(F)(F)C(F)(F)F)C(=O)N[C@H]1C(=O)Nc2ccccc2-c2ccccc21", 94.4),
    ("C[C@H](O[C@H]1OCCN(Cc2n[nH]c(=O)[nH]2)[C@H]1c1ccc(F)cc1)c1cc(C(F)(F)F)cc(C(F)(F)F)c1", 114),
    ("CCNC(=O)c1noc(-c2cc(Cl)c(O)cc2O)c1-c1ccc(OC)cc1", 101),
    ("NC(=O)CCCSc1nc(N)nc(-c2c(Cl)cc3c4c(cccc24)COC3)n1", 98.7),
]

Query string: Given the compound `CO[C@H]1C[C@H]2CC[C@@H](C)[C@@](O)(O2)C(=O)C(=O)N2CCCC[C@H]2C(=O)O[C@H]([C@H](C)C[C@@H]2CC[C@H](OC(=O)C(C)(CO)CO)[C@H](OC)C2)CC(=O)[C@H](C)/C=C(\C)[C@@H](O)[C@@H](OC)C(=O)[C@H](C)C[C@H](C)/C=C/C=C/C=C/1C` , what is its reported viability?
Result string: 56.9

Query string: Given the compound `CC1=C(/C=C/C(C)=C\C=C\C(C)=C/C(=O)O)C(C)(C)CCC1` , what is its reported viability?
Result string: 101

* * *

assay: growth inhibition, single agent or in combination, cell-based, chromothripsis tumors, cisplatin or BGB combos (AID 1671449); conditions: LFS_MB_P medulloblastoma cells, measured here: combination with cisplatin, at 5 µM, stronger effect = higher value;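 further: cells exposed for 96 hours; 0% = vehicle DMSO and 100% = killing by high DMSO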
The reader will find reported inhibition values listed item by item below.
// note: answer is a bare numeric in %

# Compound, Assay Value
records = [
    ("Cn1cnc2[nH]c(=O)[nH]c(=O)c21", -16.9),
    ("O=C(O)c1cc2cccc([N+](=O)[O-])c2[nH]1", -50.9),
    ("CC(C=CC(=O)NO)=CC(C)C(=O)c1ccc(N(C)C)cc1 (stereo unspecified)", 120),
    ("CN(C)C(=S)NN=C(c1ccccn1)c1ccccn1", 65.2),
    ("CC1OC(n2cc(F)c(=O)[nH]c2=O)C(O)C1O (stereo unspecified)", -27.3),
]

Now examine the next entry.
Query string: Given the compound CC(Oc1cc(-c2cnn(C3CCNCC3)c2)cnc1N)c1c(Cl)ccc(F)c1Cl (stereo unspecified) , what is its reported inhibition?
Result string: -60.7
